I'd appreciate it if you could supply selectivity ratio values for the items below.
assay: Selectivity index, ratio of IC50 for rat L6 cells to IC50 for Trypanosoma brucei rhodesiense STIB900; type: toxicity, cell-based; conditions: read-out: Ratio IC50

[Q] # query: selectivity ratio of entry CSc1ccc(OCc2ncc([N+](=O)[O-])n2C)cc1 [FEXINIDAZOLE]
[A] > 322

[Q] I have this molecule here, "O=C(NN(Cc1ccccc1)Cc1ccccc1)c1cc([N+](=O)[O-])ccc1Cl" , and I need its recorded selectivity ratio.
[A] 1.1

[Q] Requested field: selectivity ratio. Item: "O=C(NCc1cc([N+](=O)[O-])ccc1N1CCc2ccccc2C1)NCc1cc([N+](=O)[O-])ccc1N1CCc2ccccc2C1"
[A] > 23.6

[Q] So what's the measured selectivity ratio for this one? CN1C(=O)C2Cc3ccccc3CN2c2ccc([N+](=O)[O-])cc21 (centres undefined)
[A] 0.3

[Q] Suppose we examine the molecule "O=c1[nH]n(-c2ccccc2)c2ccc([N+](=O)[O-])cc12" ; what selectivity ratio value has been reported?
[A] 1.4

[Q] Can you share its selectivity ratio? I mean this molecule: "O=c1c2cc([N+](=O)[O-])ccc2n2n1Cc1ccccc1CC2"
[A] > 4

[Q] Item CN1C(=O)C2Cc3ccccc3CCN2c2ccc([N+](=O)[O-])cc21 (centres undefined) has what recorded selectivity ratio?
[A] 0.2

[Q] Which selectivity ratio is listed for "O=C(NN1CCc2ccccc2C1)c1cc([N+](=O)[O-])ccc1Cl" ?
[A] 0.4

[Q] Need selectivity ratio of "COc1nn(Cc2cccc(Cn3nc(OC)c4cc([N+](=O)[O-])ccc43)n2)c2ccc([N+](=O)[O-])cc12" , thanks.
[A] 2.6
